Tested on: IGF1R
TEST CONTEXT: concentration: 1 μM, replicates: in singlicate; n = 1
Could you please mark 1 for values of %Inh below 7% and -1 for values at or above it?

Previously resolved entries follow.
COMPOUND	EXPERIMENTAL TARGET	CLASS
O=c1cc(N2CCOCC2)nc2n(Cc3cccc(Cl)c3Cl)c3ccccc3n12 [GSK2299009]	IGF1R	1
CC(C)c1cc(-c2ccc3c(N)n[nH]c3c2)nc(N)n1 [GSK2250882]	IGF1R	1
Cc1ccc(NC(=O)c2ccc(Cl)cc2)cc1-c1ccc(C(=O)Nc2ccncc2)cc1 [GSK1398467]	IGF1R	-1
Cc1ccc(NC(=O)Nc2ccc(Cl)c(C(F)(F)F)c2)cc1-c1ccc(C(=O)Nc2ccncc2)cc1 [GSK1398470]	IGF1R	-1
Cn1cnc2c(N)ncnc21 [SKF-97623]	IGF1R	-1
O=C(Nc1n[nH]c2nc(-c3cccs3)c(Br)cc12)C1CCCC1 [SB-743341]	IGF1R	1

Next up:
Quick check: does Cc1c(Cn2c(C)c(C)n3c(=O)cc(N4CCOCC4)nc23)cccc1C(F)(F)F [GSK2328680] have %Inh under 7%? 1

====

Tested on: INSR;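 note: kd values determined as follow-up on hits from a single-replicate KINOMEscan panel screen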
pKd: −log10 of the molar value.
REPORTED METRIC: pKd

Param item = Cl.Cl.Cl.N#Cc1ccc(CCNc2nccc(-c3cccc(CN4CCNCC4)c3)n2)cc1 ; retrieve measured pKd. < 5.00

====

System: RIOK1
TEST CONTEXT: concentration: 1 μM, replicates: in singlicate; n = 1
REPORTED METRIC: %Inh (%)
One number for each entry, in %.

Please review the following examples before continuing.
COMPOUND	REPORTED METRIC	NUMERIC RESULT
Cn1cncc1C(=O)NC1CCN(c2ccnc(Nc3ccc(F)cc3)n2)C1 (centres unmarked)	%Inh	24
NS(=O)(=O)c1cccc(N/C=C2\C(=O)Nc3ccc(S(=O)(=O)Cc4c(Cl)cccc4Cl)cc32)c1	%Inh	19
Cc1ccc(NC(=O)Nc2ccccc2)cc1-c1ccc(C(=O)Nc2ccncc2)cc1	%Inh	35
COc1ccc(-c2coc3ccc(-c4nnc(C)o4)cc23)cc1	%Inh	0
CNc1nc(-c2ccc3c(N)n[nH]c3c2)cc(N2C[C@@H](C(=O)NC3CCCCC3)OC[C@H]2C)n1	%Inh	40

For every item in the list below, what is its measured %Inh?
1. COc1ccc(Nc2nccc(N3CCC(NC(=O)C(C)c4ccc(Cl)cc4)CC3)n2)cc1 (centres unmarked)
2. FC(F)(F)c1ccccc1-c1cc(-c2c[nH]nc2-c2ccccn2)ccn1
3. O=C1NC(=O)C(c2ccc(Cl)cc2)=C1Nc1ccc(O)cc1

1: 24; 2: 13; 3: 0

====

System: OSR1
Construct: gene OXSR1
TEST CONTEXT: concentration: 1 μM, replicates: in singlicate; n = 1
REPORTED METRIC: %Inh (%)
Answers are plain numbers, in %.

Please review the following examples before continuing.
COMPOUND	%Inh / %
Cc1ccc(NC(=O)c2ccc(Cl)cc2)cc1-c1ccc(C(=O)Nc2ccncc2)cc1 [GSK1398467]	0
Cc1ccc(-c2nc(Nc3ccncc3)c3ccccc3n2)s1 [GSK189015]	9
CC(=O)c1cccc(NC(=O)NC2CCN(c3ccnc(Nc4ccc(F)cc4)n3)C2)c1 (centres unmarked) [GSK1379710]	5

For every item in the list below, what is its measured %Inh?
1. CCCCc1nn2ncccc2c1-c1ccnc(NC2CC2)n1 [GW684374]
2. COc1cccc(C2=C(Nc3cc(Cl)c(O)c(Cl)c3)C(=O)NC2=O)c1 [SB-390767]

1: 0; 2: 15
